Data provenance: the supplement of paper PMC9170038

system: MS2 coat protein; assay: apparent KD of MS2 coat protein, switch OFF state (with FMN for OFF switches, without FMN for ON switches); designed switch direction (-1 OFF switch, 1 ON switch): 1; higher = weaker reporter binding; conditions: FMN input: 0 or 200 uM; Eterna round: R93 (includes R88 designs)
Outcome: class 1 for apparent KD of MS2 coat protein of at least 90 nM; class 0 for anything lower.

>  <seq-text>
AAGAAAGAAACAUAGGAUAUCAAGGAUAUAACAUGAGGAUCACCCAUGUAAAUACGAAAGUAUAAUGAGAAGGAUGGAUGAUCUUC [Meechl MS2 SS2]

>  <category-label>
class 0

$$$$
>  <seq-text>
AAUAAUUAUAUCGAGGAUAUCGGUAAUAAGACAUGAGGAUCACCCAUGUAAUAAGGUUAAAUAAACGAGAAGGCGAAGGGUGAAA [JR_SS002_Sub006]

>  <category-label>
class 0

$$$$
>  <seq-text>
AAACCACAUGAGGAUCACCCAUGUAAAAAUAACGCAGGAUAUGGAAACACGAAAGUGAAACCAGAAGGGUGAAAAG [77%, Mat - Mod of Eli, 15]

>  <category-label>
class 0

$$$$
>  <seq-text>
CGAAAGGAGAGAGAGGAUAUCCAAAGGAAAACAUGAGGAUCACCCAUGUAGAAGGUAGGAGAUUGGGAGAAGGCUCAAGACAGAG [salish99-ss2-143(!!!!)]

>  <category-label>
class 0

$$$$
>  <seq-text>
AAAGACACGGUGCAGGAUAUAUUAAUAGUCACAUGAGGAUCACCCAUGUUCAUUUAUAUGAACGAGUAGAAGGGCGGUGAAAAAA [SameState2 Malc#8]

>  <category-label>
class 1

$$$$
>  <seq-text>
AACAAUCUAUCUGAGGAUAUCAUGUCAAAGACAUGAGGAUCACCCAUGUGCAGGAAAACUGCAUAUGAGAAGGCAGAUAGAUUGA [SS2 :P - 599]

>  <category-label>
class 1

$$$$

Incoming: Hello, I need to know if CACCCGUGUAUGAAGGAUAUGUAGACCCUGACAUGAGGAUCACCCAUGUAACUGUGGGUCCCAUCGCAGAAGGUCGAGACACGGG [Ribitite] has measured apparent KD of MS2 coat protein not below 90 nM. Thanks!
Outgoing: class 1

Incoming: Hello, I need to know if AAAUAACAUGAGGAUCACCCAUGUUGCAACGGUUGAGGAUAUGUGGGUGAAAAUAGCAUGGCAGAAGGCGAGUGUA [SameState1 Malc#27] has measured apparent KD of MS2 coat protein not below 90 nM. Thanks!
Outgoing: class 0

Incoming: Hello, I need to know if GAAAAACAUGAGGAUCACCCAUGUAGAAAUAUGGGAGGAUAUACAAAGACGAAAGUCAAAGUAGAAGGCCUAAAAG [Mat - Same State 1 - Rerun of Eli mod - D1] has measured apparent KD of MS2 coat protein not below 90 nM. Thanks!
Outgoing: class 0

Incoming: Hello, I need to know if AAUAAACAUGAGGAUCACCCAUGUAGAAAUAUGGGAGGAUAUACAAAGACGAAAGUCAAAGUAGAAGGCCUAAUAU [Mat - Same State 1 - Mod - D154] has measured apparent KD of MS2 coat protein not below 90 nM. Thanks!
Outgoing: class 0
